src = patent US20240368135A1

- assayTarget: human NaV 1.8 (Homo sapiens)
- Sequence (Q9Y5Y9 126-399 limits assumed): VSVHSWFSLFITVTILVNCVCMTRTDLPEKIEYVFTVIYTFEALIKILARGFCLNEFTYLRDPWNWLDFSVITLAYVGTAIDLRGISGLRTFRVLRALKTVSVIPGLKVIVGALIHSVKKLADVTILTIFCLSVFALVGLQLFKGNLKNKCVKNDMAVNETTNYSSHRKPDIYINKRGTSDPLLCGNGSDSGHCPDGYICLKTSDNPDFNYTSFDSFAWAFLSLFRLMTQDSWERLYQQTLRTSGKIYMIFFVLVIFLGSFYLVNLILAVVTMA
- Sequence (Q9Y5Y9 660-890 limits assumed): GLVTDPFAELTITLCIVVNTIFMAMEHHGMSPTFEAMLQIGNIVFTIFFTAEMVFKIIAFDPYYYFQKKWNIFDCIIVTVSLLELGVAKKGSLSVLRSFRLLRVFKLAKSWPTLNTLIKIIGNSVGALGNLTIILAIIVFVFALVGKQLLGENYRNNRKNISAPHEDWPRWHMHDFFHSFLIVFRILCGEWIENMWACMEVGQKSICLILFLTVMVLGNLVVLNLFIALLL
- Sequence (Q9Y5Y9 1148-1722 limits assumed): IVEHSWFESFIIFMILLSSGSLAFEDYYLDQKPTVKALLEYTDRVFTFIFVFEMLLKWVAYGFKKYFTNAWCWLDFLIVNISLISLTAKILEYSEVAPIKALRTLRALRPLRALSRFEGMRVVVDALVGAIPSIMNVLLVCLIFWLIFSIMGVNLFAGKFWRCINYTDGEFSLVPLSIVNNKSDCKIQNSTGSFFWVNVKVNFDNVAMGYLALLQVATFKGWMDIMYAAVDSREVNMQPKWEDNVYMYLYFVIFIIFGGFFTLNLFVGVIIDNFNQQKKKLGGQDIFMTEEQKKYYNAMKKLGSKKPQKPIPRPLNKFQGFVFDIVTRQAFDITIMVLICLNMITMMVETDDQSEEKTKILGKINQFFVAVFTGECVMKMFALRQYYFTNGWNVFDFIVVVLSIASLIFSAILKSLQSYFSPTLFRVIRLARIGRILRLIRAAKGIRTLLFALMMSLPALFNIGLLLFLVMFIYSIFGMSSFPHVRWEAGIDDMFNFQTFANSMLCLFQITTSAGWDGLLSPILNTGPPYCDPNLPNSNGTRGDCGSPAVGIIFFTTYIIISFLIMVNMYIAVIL
- experimentNotes: E-VIPR assay detecting and measuring NaV inhibition properties
- Format: cell-based
- particulars: HEK cells expressing truncated human NaV 1.8; no human serum; read-out: IC50 in the E-VIPR Assay
# key: entry, value: IC50

molecule	IC50
COc1c([C@H]2[C@H](C(=O)Nc3cc(C(O)CN(C)C)ncc3F)O[C@@](C)(C(F)(F)F)[C@H]2C)ccc(F)c1F (single isomer, unassigned) [Compound 377]	< 0.01 µM
C[C@H]1[C@@H](c2ccc(F)c(F)c2OCCO)[C@H](C(=O)Nc2cccnc2)O[C@@]1(C)C(F)(F)F [Compound 575]	< 0.01 µM
COc1c(C2C(C(=O)Nc3ccnc(S(=O)(=O)CCO)c3)OC(C)(C(F)(F)F)C2C)ccc(F)c1F (stereo not drawn) [Compound 62]	< 0.01 µM
